Measured values drawn from paper PMC7360862 for this set.

target: 5-HT1B receptor (Mus musculus, UniProt P28334); construct: gene Htr1b; native receptor in mouse frontal cortex membranes; assay: competitive radioligand binding, mouse frontal cortex membranes, reference antagonist measured in the same laboratory
Sequence (P28334 whole entry): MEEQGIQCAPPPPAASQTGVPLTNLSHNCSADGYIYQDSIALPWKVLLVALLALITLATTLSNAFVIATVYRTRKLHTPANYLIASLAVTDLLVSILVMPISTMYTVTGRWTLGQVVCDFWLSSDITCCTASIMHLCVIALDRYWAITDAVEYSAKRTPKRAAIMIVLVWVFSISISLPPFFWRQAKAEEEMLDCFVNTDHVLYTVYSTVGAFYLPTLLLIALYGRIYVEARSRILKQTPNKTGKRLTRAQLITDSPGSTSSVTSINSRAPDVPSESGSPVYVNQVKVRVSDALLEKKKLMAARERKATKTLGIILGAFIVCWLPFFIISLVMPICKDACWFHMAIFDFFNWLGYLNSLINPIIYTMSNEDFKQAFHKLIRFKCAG
quantity: Ki
Please answer using the number first and the unit second.

Recorded result, COc1ccc(NC(=O)c2ccc(-c3ccc(-c4noc(C)n4)cc3C)cc2)cc1N1CCN(C)CC1 , Ki: 1.29 nM

----------
target: 5-HT1B receptor (Mus musculus); construct: gene Htr1b; native receptor in mouse frontal cortex membranes; assay: competitive radioligand binding, mouse frontal cortex membranes
quantity: pKi
pKi is defined as minus the log10 of a concentration measured in mol/L.

Sure, the documented pKi for COc1cccc(/C=N/N(C(=O)C(F)(F)F)c2ccc(C)cc2C)c1 is 6.21
